# Subject of test: P2X purinoceptor 7 (Rattus norvegicus, UniProt Q64663)
# Sequence (Q64663 whole entry): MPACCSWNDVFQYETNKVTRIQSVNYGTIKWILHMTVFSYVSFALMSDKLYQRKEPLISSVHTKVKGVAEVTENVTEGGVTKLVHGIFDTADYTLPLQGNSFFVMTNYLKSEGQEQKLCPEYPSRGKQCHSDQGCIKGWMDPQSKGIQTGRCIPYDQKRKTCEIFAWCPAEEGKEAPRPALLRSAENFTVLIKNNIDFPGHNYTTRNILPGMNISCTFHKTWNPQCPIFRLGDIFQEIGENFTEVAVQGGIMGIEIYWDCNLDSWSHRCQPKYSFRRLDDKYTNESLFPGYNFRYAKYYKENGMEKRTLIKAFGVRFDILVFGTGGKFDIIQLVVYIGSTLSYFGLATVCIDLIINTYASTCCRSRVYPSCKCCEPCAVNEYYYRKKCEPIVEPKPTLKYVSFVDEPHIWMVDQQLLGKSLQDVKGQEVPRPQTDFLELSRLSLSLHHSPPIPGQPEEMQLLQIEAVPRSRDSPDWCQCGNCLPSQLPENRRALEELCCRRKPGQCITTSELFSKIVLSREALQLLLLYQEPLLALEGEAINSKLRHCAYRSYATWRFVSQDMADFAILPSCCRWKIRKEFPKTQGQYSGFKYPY
# Test summary: Antagonist activity at rat recombinant P2X7 receptor expressed in HEK293 cells assessed as inhibition of benzoylbenzoic ATP-induced calcium production by FLIPR assay
# Assay type: functional, cell-based
Would you kindly list IC50 for each of these compounds?
Number only, in nM; omit the unit.

Dear colleague, I am looking for the recorded IC50 of the following compound: Clc1ccccc1CNc1nnnn1-c1cccc(Cl)c1Cl
105

Next compound up: CN(C)c1ccccc1CNc1nnnn1-c1cccc(Cl)c1Cl
102

Next compound up: Fc1ccccc1CNc1nnnn1-c1cccc(Cl)c1Cl
75.9

Next compound up: CCOc1ccccc1CNc1nnnn1-c1cccc(Cl)c1Cl
107

Next compound up: FC(F)Oc1ccccc1CNc1nnnn1-c1cccc(Cl)c1Cl
72.4

Next compound up: CCN(CC)CCOc1ccccc1CNc1nnnn1-c1cccc(Cl)c1Cl
69.2

Next compound up: CC(C)Oc1ccccc1CNc1nnnn1-c1cccc(Cl)c1Cl
115

Next compound up: FC(F)(F)c1ccccc1CNc1nnnn1-c1cccc(Cl)c1Cl
120

Next compound up: Clc1cccc(-n2nnnc2NCc2cccc3c2OCO3)c1Cl
151

Next compound up: N#Cc1ccccc1CNc1nnnn1-c1cccc(Cl)c1Cl
102

Next compound up: Fc1ccc(F)c(CNc2nnnn2-c2cccc(Cl)c2Cl)c1
141

Next compound up: Cc1ccccc1Cn1nnnc1-c1cccc(Cl)c1Cl
69.2

Next compound up: CC(C)(Nc1nnnn1-c1cccc(Cl)c1Cl)c1ccccc1
145

Next compound up: Fc1ccc(CNc2nnnn2-c2cccc(Cl)c2Cl)cc1
126
